Test system: K-562 leukemia growth, % test/control
Experiment: Anticancer human tumor K-562 cell line growth inhibition;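 note: spheroids exposed to compounds for 7 days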
Settings: curve of first compound; second compound 1 µM; spheroids with HUVEC and MSC
Each entry below lists one item and its recorded pIC50 value.
Reminder that pIC50 means the negative base-10 logarithm of the concentration expressed in mol/L.

COc1cc(C2c3cc4c(cc3C(OC3OC5COC(C)OC5C(O)C3O)C3COC(=O)C23)OCO4)cc(OC)c1O (stereo unspecified) + NC1CC1c1ccc(-c2cccc(O)c2)cc1 tested on K-562 leukemia growth, % test/control gave pIC50: 7.60

COc1ccc([C@@H](O)c2cc(-c3ncnc4cc(N5CCOCC5)ccc34)c(F)cc2Cl)nn1 + NC1CC1c1ccc(-c2cccc(O)c2)cc1 tested on K-562 leukemia growth, % test/control gave pIC50: 5.19

CC(C)CC(NC(=O)C(Cc1ccccc1)NC(=O)c1cnccn1)B(O)O (stereo unspecified) + NC1CCC(NC2CC2c2ccccc2)CC1 tested on K-562 leukemia growth, % test/control gave pIC50: 8.71

* * *

Test system: K-562 leukemia growth, % test/control
Test: Anticancer human tumor K-562 cell line growth inhibition;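 note: spheroids exposed to compounds for 7 days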;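 for viability, T/C: 100% = DMSO vehicle wells and lower values mean fewer viable cells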
Details: second compound 1 µM; first compound 0.000316 µM; stronger effect = lower value; spheroids with HUVEC and MSC
value_kind: viability, T/C (%)
# number only, unit % dropped from output

Please review the following examples before continuing.
CC(C)CC(NC(=O)C(Cc1ccccc1)NC(=O)c1cnccn1)B(O)O (stereo not drawn) + NC1CCC(NC2CC2c2ccccc2)CC1 | 104
CC[C@@]1(O)C(=O)OCc2c1cc1n(c2=O)Cc2cc3c(CN(C)C)c(O)ccc3nc2-1 + NC1CCC(NC2CC2c2ccccc2)CC1 | 99.5
CC(C)CC(NC(=O)CNC(=O)c1cc(Cl)ccc1Cl)B1OC(=O)CC(CC(=O)O)(C(=O)O)O1 (stereo not drawn) + NC1CC1c1ccc(-c2cccc(O)c2)cc1 | 103
CC[C@@]1(O)C(=O)OCc2c1cc1n(c2=O)Cc2cc3c(CN(C)C)c(O)ccc3nc2-1 + NC1CC1c1ccc(-c2cccc(O)c2)cc1 | 107
CC(C)CC(NC(=O)CNC(=O)c1cc(Cl)ccc1Cl)B1OC(=O)CC(CC(=O)O)(C(=O)O)O1 (stereo not drawn) + NC1CCC(NC2CC2c2ccccc2)CC1 | 104

Field viability, T/C (entry Cn1ncnc1C1c2n[nH]c(=O)c3cc(F)cc(c23)NC1c1ccc(F)cc1 (stereo not drawn) + NC1CCC(NC2CC2c2ccccc2)CC1 ) reads 108

Field viability, T/C (entry CC(C)CC(NC(=O)C(Cc1ccccc1)NC(=O)c1cnccn1)B(O)O (stereo not drawn) + NC1CC1c1ccc(-c2cccc(O)c2)cc1 ) reads 109

Field viability, T/C (entry Cn1ncnc1C1c2n[nH]c(=O)c3cc(F)cc(c23)NC1c1ccc(F)cc1 (stereo not drawn) + NC1CC1c1ccc(-c2cccc(O)c2)cc1 ) reads 106

* * *

System: K-562 leukemia growth, % test/control
Assay: Anticancer human tumor K-562 cell line growth inhibition;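 note: spheroids exposed to compounds for 7 days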;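 for viability, T/C: 100% = DMSO vehicle wells and lower values mean fewer viable cells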
Details: second compound 3.16 µM; first compound 0.001 µM; stronger effect = lower value; spheroids with HUVEC and MSC
Each entry below lists one item and its recorded viability, T/C value.
# number only, unit % dropped from output

CC(C)CC(NC(=O)C(Cc1ccccc1)NC(=O)c1cnccn1)B(O)O (stereo not drawn) + NC1CC1c1ccc(-c2cccc(O)c2)cc1 tested on K-562 leukemia growth, % test/control gave viability, T/C: 2.37

CC[C@@]1(O)C(=O)OCc2c1cc1n(c2=O)Cc2cc3c(CN(C)C)c(O)ccc3nc2-1 + NC1CCC(NC2CC2c2ccccc2)CC1 tested on K-562 leukemia growth, % test/control gave viability, T/C: 65.3

CC(C)CC(NC(=O)CNC(=O)c1cc(Cl)ccc1Cl)B1OC(=O)CC(CC(=O)O)(C(=O)O)O1 (stereo not drawn) + NC1CC1c1ccc(-c2cccc(O)c2)cc1 tested on K-562 leukemia growth, % test/control gave viability, T/C: 96.6

Cn1ncnc1C1c2n[nH]c(=O)c3cc(F)cc(c23)NC1c1ccc(F)cc1 (stereo not drawn) + NC1CCC(NC2CC2c2ccccc2)CC1 tested on K-562 leukemia growth, % test/control gave viability, T/C: 103

* * *

System: K-562 leukemia growth, % test/control
Test: Anticancer human tumor K-562 cell line growth inhibition;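 note: spheroids exposed to compounds for 7 days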;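 for viability, T/C: 100% = DMSO vehicle wells and lower values mean fewer viable cells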
Conditions: second compound 0.1 µM; first compound 10 µM; stronger effect = lower value; spheroids with HUVEC and MSC
value_kind: viability, T/C (%)
# number only, unit % dropped from output

CC1COCCN1c1cc(C2(S(C)(=N)=O)CC2)nc(-c2ccnc3[nH]ccc23)n1 (stereo not given) + NC1CC1c1ccc(-c2cccc(O)c2)cc1 | 2.95

Field viability, T/C (entry CC(C)c1c(-c2ccccc2)nc2c(C#N)c[nH]n2c1=O + NC1CC1c1ccc(-c2cccc(O)c2)cc1 ) reads 106

Field viability, T/C (entry CC(C)c1c(-c2ccccc2)nc2c(C#N)c[nH]n2c1=O + NC1CCC(NC2CC2c2ccccc2)CC1 ) reads 98.9

Field viability, T/C (entry CC1(C)CCC(CN2CCN(c3ccc(C(=O)NS(=O)(=O)c4ccc(NCC5CCOCC5)c([N+](=O)[O-])c4)c(Oc4cnc5[nH]ccc5c4)c3)CC2)=C(c2ccc(Cl)cc2)C1 + NC1CCC(NC2CC2c2ccccc2)CC1 ) reads 19.1

Field viability, T/C (entry CC1(C)CCC(CN2CCN(c3ccc(C(=O)NS(=O)(=O)c4ccc(NCC5CCOCC5)c([N+](=O)[O-])c4)c(Oc4cnc5[nH]ccc5c4)c3)CC2)=C(c2ccc(Cl)cc2)C1 + NC1CC1c1ccc(-c2cccc(O)c2)cc1 ) reads 1.4

Field viability, T/C (entry COc1ccc([C@@H](O)c2cc(-c3ncnc4cc(N5CCOCC5)ccc34)c(F)cc2Cl)nn1 + NC1CCC(NC2CC2c2ccccc2)CC1 ) reads 46.5

Field viability, T/C (entry COc1ccc([C@@H](O)c2cc(-c3ncnc4cc(N5CCOCC5)ccc34)c(F)cc2Cl)nn1 + NC1CC1c1ccc(-c2cccc(O)c2)cc1 ) reads 38.8

Field viability, T/C (entry CC1COCCN1c1cc(C2(S(C)(=N)=O)CC2)nc(-c2ccnc3[nH]ccc23)n1 (stereo not given) + NC1CCC(NC2CC2c2ccccc2)CC1 ) reads 2.72

Field viability, T/C (entry O=C(c1cc(Cc2n[nH]c(=O)c3ccccc23)ccc1F)N1CCN(C(=O)C2CC2)CC1 + NC1CCC(NC2CC2c2ccccc2)CC1 ) reads 51.2

Field viability, T/C (entry O=C(c1cc(Cc2n[nH]c(=O)c3ccccc23)ccc1F)N1CCN(C(=O)C2CC2)CC1 + NC1CC1c1ccc(-c2cccc(O)c2)cc1 ) reads 48.4

* * *

Each entry below lists one item and its recorded viability, T/C value.
Tested on: K-562 leukemia growth, % test/control
Assay: Anticancer human tumor K-562 cell line growth inhibition;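 note: spheroids exposed to compounds for 7 days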;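 for viability, T/C: 100% = DMSO vehicle wells and lower values mean fewer viable cells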
Conditions: second compound 10 µM; first compound 0.00949 µM; stronger effect = lower value; spheroids with HUVEC and MSC
# number only, unit % dropped from output

Please review the following examples before continuing.
O=C(C=Cc1cccc(S(=O)(=O)Nc2ccccc2)c1)NO + NC1CCC(NC2CC2c2ccccc2)CC1 | 65.4
NS(=O)(=O)OCC1CC(n2ccc3c(NC4CCc5ccccc54)ncnc32)CC1O (configuration not stated) + NC1CCC(NC2CC2c2ccccc2)CC1 | 42
CCc1c2c(nc3ccc(O)cc13)-c1cc3c(c(=O)n1C2)COC(=O)[C@]3(O)CC + NC1CC1c1ccc(-c2cccc(O)c2)cc1 | 1.32
NS(=O)(=O)OCC1CC(n2ccc3c(NC4CCc5ccccc54)ncnc32)CC1O (configuration not stated) + NC1CC1c1ccc(-c2cccc(O)c2)cc1 | 30.5

Field viability, T/C (entry Nc1ccn(C2OC(CO)C(O)C2(F)F)c(=O)n1 (configuration not stated) + NC1CC1c1ccc(-c2cccc(O)c2)cc1 ) reads 19

Field viability, T/C (entry Nc1ncn(C2CC(O)C(CO)S2)c(=O)n1 (configuration not stated) + NC1CCC(NC2CC2c2ccccc2)CC1 ) reads 95.9

Field viability, T/C (entry COc1cc(C2c3cc4c(cc3C(OC3OC5COC(C)OC5C(O)C3O)C3COC(=O)C23)OCO4)cc(OC)c1O (configuration not stated) + NC1CC1c1ccc(-c2cccc(O)c2)cc1 ) reads 57.5

* * *

Test system: K-562 leukemia growth, % test/control
Assay: Anticancer human tumor K-562 cell line growth inhibition; active = viability on the fitted dose curve at most 10% of control; inactive = the rest;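 note: spheroids exposed to compounds for 7 days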
Conditions: second compound 0.1 µM; first compound 0.01 µM; spheroids with HUVEC and MSC
Answer with one of the outcomes given here: active, inactive

O=C(C=Cn1cnc(-c2cc(C(F)(F)F)cc(C(F)(F)F)c2)n1)NNc1cnccn1 + NC1CC1c1ccc(-c2cccc(O)c2)cc1 | inactive
CC(C)CC(NC(=O)CNC(=O)c1cc(Cl)ccc1Cl)B1OC(=O)CC(CC(=O)O)(C(=O)O)O1 (stereo unspecified) + NC1CCC(NC2CC2c2ccccc2)CC1 | inactive
Nc1ncn(C2CC(O)C(CO)O2)c(=O)n1 (stereo unspecified) + NC1CC1c1ccc(-c2cccc(O)c2)cc1 | inactive
O=C(C=Cn1cnc(-c2cc(C(F)(F)F)cc(C(F)(F)F)c2)n1)NNc1cnccn1 + NC1CCC(NC2CC2c2ccccc2)CC1 | inactive
CC1COCCN1c1cc(-c2ccnn2C)c2ccnc(-c3ccn[nH]3)c2n1 (stereo unspecified) + NC1CCC(NC2CC2c2ccccc2)CC1 | inactive
Nc1ncn(C2CC(O)C(CO)O2)c(=O)n1 (stereo unspecified) + NC1CCC(NC2CC2c2ccccc2)CC1 | inactive

Let's switch to this molecule now.
For this molecule, state the assay outcome: CC(C)CC(NC(=O)C(Cc1ccccc1)NC(=O)c1cnccn1)B(O)O (stereo unspecified) + NC1CC1c1ccc(-c2cccc(O)c2)cc1
active
